Test: refractive index (Na D-line) (dimensionless)
Details: 308.15 K; 101.33 kPa; Liquid; Standard Abbe refractometry
Numbers after ± are expanded uncertainties.
Provide the reported refractive index of each item.

stdin: Can you look up the measured refractive index of OCCc1ccccc1 for me?
stdout: 1.5267 ± 0.0008

stdin: Can you look up the measured refractive index of C[S+](C)[O-] [dimethyl sulfoxide] for me?
stdout: 1.473 ± 0.0004

stdin: Can you look up the measured refractive index of OCCCc1ccccc1 for me?
stdout: 1.521 ± 0.001

stdin: Can you look up the measured refractive index of OCc1ccccc1 for me?
stdout: 1.535 ± 0.0005

Cited source for all entries: the NIST ThermoML archive (doi:10.1021/je0501991)
